Target: human HPK1 (MAP4K1) (Homo sapiens (Human), UniProt Q92918)
Sequence (Q92918 17-274): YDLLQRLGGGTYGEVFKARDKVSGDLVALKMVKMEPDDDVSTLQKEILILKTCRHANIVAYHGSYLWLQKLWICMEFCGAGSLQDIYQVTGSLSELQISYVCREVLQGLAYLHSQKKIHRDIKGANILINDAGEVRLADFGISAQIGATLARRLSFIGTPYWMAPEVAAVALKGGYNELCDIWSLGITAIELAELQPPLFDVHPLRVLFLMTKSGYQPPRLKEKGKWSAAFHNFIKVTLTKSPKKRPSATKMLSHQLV
Experiment: HPK1 IC50 Assay (TR-FRET peptide phosphorylation)
Assay type: biochemical
Details: recombinant HPK1 kinase domain 0.15 nM, 10 μM ATP, 1 μM STK S1 peptide; geometric mean of multiple experiments
propertyLabel: pIC50
Value format note: pIC50 is -log10 of concentration (mol/L); just state the number.

                                  cpdsmiles  propertylabel  recordednumber
0  CNC(=O)c1cc(Nc2nc(-c3ccc4c(c3)N([C@H]3C[C@@H](N5CC6CCC(C5)O6)C3)C(=O)C4(C)C)cc3ncn(C(C)C)c23)c(F)cc1C          pIC50           10.00
1  CNC(=O)c1cc(Nc2nc(-c3ccc4c(c3)N([C@H]3C[C@@H](N5CCC[C@@H](F)C5)C3)C(=O)C43CCN(C(C)=O)CC3)cc3ncn(C(C)C)c23)ccc1C          pIC50           10.00
2  CNC(=O)c1cc(Nc2nc(-c3ccc4c(c3)N([C@H]3C[C@@H](N5CCCCC5)C3)C(=O)C4(C)C)cc3ncn(C(C)C)c23)c(F)cc1Cl          pIC50           10.05

Next:
Q: Give pIC50 (human HPK1 (MAP4K1) (Homo sapiens (Human), UniProt Q92918)) of the following compound: `CC[C@]1(N2CCCCC2)C[C@@H](N2C(=O)C(C)(C)c3ncc(-c4cc5ncn(C(C)C)c5c(Nc5cc(C(=O)NC6(C(F)F)CC6)c(C)cc5F)n4)cc32)C1`
A: 9.52

----------
Molecular target: human HPK1 (MAP4K1) (Homo sapiens (Human), UniProt Q92918)
Assay: HPK1 IC50 Assay (TR-FRET peptide phosphorylation)
Assay type: biochemical
Details: recombinant HPK1 kinase domain 0.15 nM, 10 μM ATP, 1 μM STK S1 peptide; geometric mean of multiple experiments
propertyLabel: pIC50
Value format note: pIC50 is -log10 of concentration (mol/L); just state the number.

Here is how some compounds turned out for pIC50.
>>> df
                                  cpdsmiles  propertylabel  recordednumber
0  Cc1ccc(Nc2nc(-c3ccc4c(c3)N([C@H]3C[C@@H](N5CCC[C@@H](O)C5)C3)C(=O)C4(C)C)cc3ncn(C4CC4)c23)cc1C(N)=O          pIC50           10.00
1  CNC(=O)c1cc(Nc2nc(-c3ccc4c(c3)N([C@H]3C[C@@H](N5CCCCC5)C3)C(=O)C43CCN(C(=O)C4(C)COC4)CC3)cc3ncn(C4CC4)c23)ccc1C          pIC50           10.00

Next:
Q: Fill in: pIC50 of `Cc1ccc(Nc2nc(-c3ccc4c(c3)N([C@H]3C[C@@H](N5CCCCC5)C3)C(=O)C4(C)C)cc3ncn(C(C)C)c23)cc1C(=O)NC(C)C` is ___
A: 10.00

----------
Here, each record is paired with measured pIC50 data.
Molecular target: human HPK1 (MAP4K1) (Homo sapiens (Human))
Assay: HPK1 IC50 Assay (TR-FRET peptide phosphorylation)
Assay type: biochemical
Details: recombinant HPK1 kinase domain 0.15 nM, 10 μM ATP, 1 μM STK S1 peptide; geometric mean of multiple experiments
Value format note: pIC50 is -log10 of concentration (mol/L); just state the number.

Here is how some compounds turned out for pIC50.
compound	pIC50
CC(C)n1cnc2cc(-c3cnc4c(c3)N([C@H]3C[C@@](C)(N5CCCCC5)C3)C(=O)C4(C)C)nc(Nc3cc(C(=O)NC4(CF)CC4)c(Cl)c(F)c3F)c21 [Example 211]	10.00
CC(=O)N1CCC2(CC1)C(=O)N([C@H]1C[C@@H](N3CCCCC3)C1)c1cc(-c3cc4ncn(C(C)C)c4c(Nc4ccc(C)c(C(=O)NC(C)C)c4)n3)ccc12 [Example 83]	10.00
Cc1ccc(Nc2nc(-c3ccc4c(c3)N([C@H]3C[C@@H](N5CCCCC5)C3)C(=O)C4(C)C)cc3ncn(C(C)C)c23)cc1C(=O)NC1(C(F)F)CC1 [Example 27]	10.15
CC(C)n1cnc2cc(-c3cnc4c(c3)N([C@H]3C[C@@](C)(N5CC[C@@H](F)C5)C3)C(=O)C4(C)C)nc(Nc3cc(C(=O)NC4(C(F)F)CC4)c(Cl)c(F)c3F)c21 [Example 200]	10.00
CCNC(=O)c1cc(Nc2nc(-c3ccc4c(c3)N([C@H]3C[C@@H](N5CCCCC5)C3)C(=O)C4(C)C)cc3ncn(C(C)C)c23)ccc1C [Example 138]	10.00

Q: Give pIC50 (human HPK1 (MAP4K1) (Homo sapiens (Human))) of the following compound: Cc1c(C(=O)NC2(C(F)F)CC2)cc(Nc2nc(-c3cc4c(nc3F)C(C)(C)C(=O)N4[C@H]3C[C@@](C)(N4CCCCC4)C3)cc3ncn(C(C)C)c23)c(F)c1F [Example 195]
A: 10.15

Q: Give pIC50 (human HPK1 (MAP4K1) (Homo sapiens (Human))) of the following compound: Cc1ccc(Nc2nc(-c3ccc4c(c3)N([C@H]3C[C@@H](N5CCCCC5)C3)C(=O)C43CCN(CC(F)F)CC3)cc3ncn(C(C)C)c23)cc1C(=O)NC(C)C [Example 62]
A: 10.00

Q: Give pIC50 (human HPK1 (MAP4K1) (Homo sapiens (Human))) of the following compound: Cc1c(C(=O)NC2(C(F)F)CC2)cc(Nc2nc(-c3cnc4c(c3)N([C@H]3C[C@@](C)(N5CC6CCC5CO6)C3)C(=O)C4(C)C)cc3ncn(C(C)C)c23)c(F)c1F (stereo partly shown) [Example 224]
A: 10.22

Q: Give pIC50 (human HPK1 (MAP4K1) (Homo sapiens (Human))) of the following compound: CNC(=O)c1cc(Nc2nc(-c3ccc4c(c3)N([C@H]3C[C@@H](N5CC(C)(C)CC(C)(C)C5)C3)C(=O)C43CCN(C(C)=O)CC3)cc3ncn(C4CC4)c23)ccc1C [Example 160]
A: 10.10

Q: Give pIC50 (human HPK1 (MAP4K1) (Homo sapiens (Human))) of the following compound: CNC(=O)c1cc(Nc2nc(-c3ccc4c(c3)N([C@H]3C[C@@H](N5CCCCC5)C3)C(=O)C4(C)O)cc3ncn(C(C)C)c23)ccc1Cl (stereo partly shown) [Example 63]
A: 10.00
